Assign Lowest virus neutralizing concentration (pM; IC99) to each entry below.
- assayed.target: SARS-CoV-2 Omicron BA.1 variant spike protein (SARS-CoV-2 (Omicron BA.1 variant))
- assay.details: cell-based or functional assay
# number only, unit pM dropped from output

[Q] Can you share its Lowest virus neutralizing concentration (pM; IC99)? I mean this binder: Ma28D01 (VHH, Monomeric VHH) VHH: QVQLVESGGGLVQPGGSLRLSCVVSELGLDYYQIGWFRQAPGKEREGVSCFRSSDEIRYYADSVKGRFTTFRDNAGTTVYLQMNSLKPEDTGVYYCAVAPQTYYHGTWYGECAAAGMDSWGKGTQVTVSS
[A] 1700

[Q] So what's the measured Lowest virus neutralizing concentration (pM; IC99) for this one? Ma28F04 (VHH, Monomeric VHH) VHH: QVQLVESGGGLVQPGGSLRLSCVVSDLGLDYYQIGWFRQAPGKEREGVSCFRSSDEIRYYADPVKGRFTTFRDNAGTTVYLQMNSLKPEDTGVYYCAVAPQTYYHGTWYGECAAAGMDSWGKGTLVTVSS
[A] 500

[Q] Quick one: Lowest virus neutralizing concentration (pM; IC99) of Ma16B06 (VHH, Monomeric VHH; also called VHH Ma16B06) VHH: QVQLVESGGGLVRTGGSLRLSCAASGSILQIWAMKWYRQAPGLQREWIATIPNSGEPFYASSVEGRFTGSRENEETVYLYLNNLEPEDTAVYYCEVNEGVPVREYWGQGTQVTVSS ?
[A] 50
